System: TK-10 renal
Assay: NCI-60 one-dose screen, 48 h (100 = growth as untreated, 0 = no growth, -100 = all killed)
Settings: 10 µM unless noted
Compounds without any hit were thinned out: in the full panel of roughly 83,000, 20% have a hit.
assay readout: growth (%)
The response must be a number in % with no trailing unit.

These solved cases illustrate the format of a correct answer.
COC(=O)c1cc2c(=O)[nH]cc3c2c(n1)CCC3
106
CCOC(=O)C(=Cc1ccccc1[N+](=O)[O-])C(=O)OCC
22.1
CCOC(CNC(=O)c1cccc([N+](=O)[O-])c1)OCC
82.8
OC(c1ccc(Cl)cc1)(c1ccc(Cl)cc1)C(O)(c1ccc(Cl)cc1)c1ccc(Cl)cc1
29.1
COc1ccc(C(=O)CCC(=O)O)cc1
105

Incoming: Param request: growth | system TK-10 renal | item O=C1CC(c2ccccc2)Cc2nc3ccc(Cl)cc3cc21 (stereo unspecified)
Outgoing: 71.2

----------
Test system: SNB-75 CNS
Assay: NCI-60 one-dose screen, 48 h
Conditions: 10 µM unless noted
Compounds without any hit were thinned out: in the full panel of roughly 83,000, 20% have a hit. Active and inactive are the calls of the source. Rule for the calls: active = growth percent below 10; inactive = the rest.
# output must be one of 1.0 for active, 0.0 for inactive

Incoming: Recorded test call requested for CCOC(=O)C(C(C)=O)c1nc2sc3cc(Cl)c(Cl)cc3n2c(=O)c1C#N (stereo not drawn)
Outgoing: 0.0

Incoming: Recorded test call requested for COc1ccc2nc3cc(Cl)ccc3c(Nc3ccc(O)c(CN4CCCC4)c3)c2c1
Outgoing: 0.0

Incoming: Recorded test call requested for C=C(C)[C@@H]1CC[C@]2(C)[C@H](CC[C@@H]3[C@@H]([C@@](C)(O)CCC=C(C)C)CC[C@]32C)[C@@]1(C)CCC(=O)N1CCN(C)CC1
Outgoing: 1.0

Incoming: Recorded test call requested for C[n+]1c2ccccc2nc2c(N)cc(N)cc21
Outgoing: 0.0

Incoming: Recorded test call requested for C#C[C@]1(O)CC[C@H]2[C@@H]3CC=C4c5nc(Nc6ccccc6[N+](=O)[O-])sc5CC[C@]4(C)[C@H]3CC[C@@]21C
Outgoing: 0.0

Incoming: Recorded test call requested for CC1(C)CC[C@]2(C(=O)O)CC[C@]3(C)C(=CC[C@@H]4[C@@]5(C)C/C(=C/c6cccnc6)[C@H](O)C(C)(C)[C@@H]5CC[C@]43C)[C@@H]2C1
Outgoing: 0.0

Incoming: Recorded test call requested for CCc1ccc(C2=C/C(=C/c3ccccc3)C(=O)N2CCc2ccc(S(N)(=O)=O)cc2)cc1
Outgoing: 0.0

Incoming: Recorded test call requested for Cc1cc[n+](CCCCCCCCCC[n+]2ccc(C)cc2)cc1
Outgoing: 0.0

----------
Tested on: UO-31 renal
Assay: NCI-60 one-dose screen, 48 h (100 = growth as untreated, 0 = no growth, -100 = all killed)
Details: 10 µM unless noted
Compounds without any hit were thinned out: in the full panel of roughly 83,000, 20% have a hit. Activity calls are given as the source filed them. The calls were made as follows: active = growth percent below 10; inactive = the rest.
assay readout: growth

These solved cases illustrate the format of a correct answer.
CC1Cc2c(Cl)ncnc2N(C)c2ccc(O)cc21 (centres undefined)
22.5% (inactive)
C[C@]12CCc3c(ccc4cc(O)ccc34)[C@@H]1CC[C@H]2O
87.2% (inactive)

Incoming: Provide measured growth value, entry: O=C(CSc1nc2ccc([N+](=O)[O-])cc2[nH]1)Nc1ccc(F)c(Cl)c1
Outgoing: 3.59% (active)

Incoming: Provide measured growth value, entry: CCCSc1nc(N)nc2nc[nH]c12
Outgoing: 93.5% (inactive)

Incoming: Provide measured growth value, entry: C#C[C@]1(O)CC[C@H]2[C@@H]3CC=C4c5nc(N)sc5CC[C@]4(C)[C@H]3CC[C@@]21C
Outgoing: 90.4% (inactive)

----------
Tested on: T-47D breast
Test: NCI-60 one-dose screen, 48 h (100 = growth as untreated, 0 = no growth, -100 = all killed)
Details: 10 µM unless noted
The panel holds about 83,000 compounds, 20% with a hit somewhere; the sample as a whole holds those more often. The source made the active and inactive calls. How the source made its calls: active means growth percent below 10; inactive means the rest.
assay readout: growth

These solved cases illustrate the format of a correct answer.
CC1(C)OC2[C@@H](CNC(=O)NC(=O)NC(=O)CI)O[C@@H](n3cnc4c(NC(=O)Nc5ccccc5)ncnc43)[C@H]2O1 (stereo partly drawn)
49% (inactive)
CCNC(=O)N1CCc2c(Cl)c3c(c(OC)c2[C@@H]1[C@H]1OCc2c1ccc(OC)c2OC)OCCO3
20.5% (inactive)
CCOC(=O)C1=C(C(=O)c2ccc(Br)cc2)C(c2ccc(Br)cc2)NC(=S)N1 (stereo not drawn)
94.5% (inactive)

Incoming: Provide measured growth value, entry: O=C1CC(c2ccc3c(c2)OCO3)Nc2ccccc21 (stereo not drawn)
Outgoing: 27.5% (inactive)

Incoming: Provide measured growth value, entry: CCOC(=O)c1nc2c3ccccc3ccn2c1C(=O)OC
Outgoing: 76.4% (inactive)

Incoming: Provide measured growth value, entry: O=C(N/N=C/c1c(Cl)cccc1Cl)c1cccc(Nc2ccnc(C(F)(F)F)c2)c1
Outgoing: 37% (inactive)

Incoming: Provide measured growth value, entry: CC1(C)CC[C@]2(C(=O)OC(=O)[C@]34CCC(C)(C)C[C@@H]3C3=CC[C@@H]5[C@@]6(C)CCC(=O)C(C)(C)[C@@H]6CC[C@@]5(C)[C@]3(C)CC4)CC[C@]3(C)C(=CC[C@@H]4[C@@]5(C)CCC(=O)C(C)(C)[C@@H]5CC[C@]43C)[C@H]2C1
Outgoing: 48.1% [100 µM] (inactive)

Incoming: Provide measured growth value, entry: O=C(Nc1ccc(Oc2ccc(F)cc2)c(Cl)c1)c1cccnn1
Outgoing: 37.6% (inactive)

----------
Tested on: UO-31 renal
Assay: NCI-60 one-dose screen, 48 h
Settings: 10 µM unless noted
This is part of a sample that, as a whole, favours compounds with a hit. Of some 83,000 tested, about 20% had one in any assay. Active and inactive are the calls of the source. Rule for the calls: active = growth percent below 10; inactive = the rest.
# output must be one of active, inactive

C=C(C)[C@@H]1CC[C@]2(COCCCN)CC[C@]3(C)[C@H](CC[C@@H]4[C@@](C)(CCCNCCCN)[C@H](C(=C)C)CC[C@]43C)[C@@H]12
active
CCCC[C@@H](C=O)NC(=O)[C@H](CC(C)C)NC(=O)[C@H](CC(C)C)NC(=O)OCc1ccccc1
inactive
COc1cc(/C=C/C(=O)/C=C/c2ccc(-n3ccnc3C)cc2)ccc1O
active
CCOC(=O)c1nn(C2CCCCO2)c2ccc(NC(=O)CN3CCCC3)cc12 (stereo not given)
inactive
CC(C)(C)OC(=O)N1C=C/C(=C\Cn2cc(-c3ccccc3)nn2)CC1
inactive

Incoming: Recorded test call requested for CCOC(=O)C(c1ccccc1)N1C(=O)c2ccccc2C1=O (stereo not given)
Outgoing: inactive

Incoming: Recorded test call requested for CC1(C)[C@@H](NOCCCN)CC[C@]2(C)[C@H]3C(=O)C=C4[C@@H]5C[C@](C)(C(=O)O)CC[C@]5(C)CC[C@@]4(C)[C@]3(C)CC[C@@H]12
Outgoing: active

Incoming: Recorded test call requested for C=C(C)[C@@H]1CC[C@]2(C)[C@H](CC[C@@H]3[C@@H]([C@@](C)(O)CCC=C(C)C)CC[C@]32C)[C@@]1(C)CCC(=O)O
Outgoing: active

Incoming: Recorded test call requested for CC[C@]12C=CCN3CC[C@@]4(c5ccc(OC)cc5N(C)[C@H]4[C@@](O)(C(=O)OC)[C@@H]1OC(=O)CCC(=O)O[C@H]1CC[C@H]4[C@@H]5CCC6=CC(=O)CC[C@@H]6[C@H]5CC[C@]14C)[C@@H]32
Outgoing: active

Incoming: Recorded test call requested for CSc1nc2c(c(=O)n1C)C1(C(=O)N(Cc3ccccc3)c3ccccc31)c1c(nc(SC)n(C)c1=O)N2
Outgoing: inactive

Incoming: Recorded test call requested for Cc1cc(-c2ccc(N=Nc3c(S(=O)(=O)O)cc4cc(S(=O)(=O)O)cc(N)c4c3O)c(C)c2)ccc1N=Nc1cc(S(=O)(=O)O)c2ccccc2c1O
Outgoing: inactive

----------
Test system: COLO 205 colon
Assay: NCI-60 one-dose screen, 48 h
Details: 10 µM unless noted
Description: Cells are grown in 96 well plates and exposed to the test compound for 48 hours. Compounds are tested at a single concentration, which is 10^-5 M for most compounds. The reported endpoint is percent growth (GI% or GIPRCNT), where numbers from 0 - 100% represent growth inhibition, and numbers from -100% - 0 represent cell death. For example, a value of 40 represents 60% growth inhibition. A value of 0 means no net growth occurred over the course of the experiment. […]
This is part of a sample that, as a whole, favours compounds with a hit. Of some 83,000 tested, about 20% had one in any assay. Active and inactive are the calls of the source. The calls were made as follows: active = growth percent below 10; inactive = the rest.
# output must be one of Yes (active), No (inactive)

Worked examples follow.
O=C(Nc1ccc(F)cc1)c1ccccc1
No
C=C(C)[C@@H]1CC[C@]2(C)[C@H](CC[C@@H]3[C@@H]([C@@](C)(O)CCC=C(C)C)CC[C@]32C)[C@@]1(C)CCC(=O)N1CCN(C)CC1
Yes
CCOC(=O)COc1c(C)cc(SSc2cc(C)c(OCC(=O)OCC)c(C)c2)cc1C
No
CCCCC1COc2cccc3c2N1C=C/C3=C\C(=O)n1ccc2ccccc21 (centres undefined)
No
NC(=S)Cc1ccccc1
No

Incoming: Recorded test call requested for Nc1nc(SCc2cccc([N+](=O)[O-])c2)c2[nH]cnc2n1
Outgoing: No

Incoming: Recorded test call requested for C=C(C)[C@@H]1CC[C@]2(COCCCN)CC[C@]3(C)[C@H](CC[C@@H]4[C@@](C)(CCCNCCCN)[C@H](C(=C)C)CC[C@]43C)[C@@H]12
Outgoing: Yes

Incoming: Recorded test call requested for O=C1COCCN1c1ccc(NCc2cn(Cc3cccc4ccccc34)c3ccccc23)cc1
Outgoing: No

Incoming: Recorded test call requested for CCN(CC)CCSC(=O)C(O)(c1ccccc1)C1CCCC1 (centres undefined)
Outgoing: No
